Data provenance: patent US9255100B2

target of assay: N-terminally GST-tagged human full length recombinant Mps-1 kinase (Homo sapiens, UniProt P33981)
Construct: N-terminally GST-tagged human full length recombinant Mps-1 kinase; purchased Invitrogen, Karslruhe, Germany PV4071
Sequence (P33981 whole entry): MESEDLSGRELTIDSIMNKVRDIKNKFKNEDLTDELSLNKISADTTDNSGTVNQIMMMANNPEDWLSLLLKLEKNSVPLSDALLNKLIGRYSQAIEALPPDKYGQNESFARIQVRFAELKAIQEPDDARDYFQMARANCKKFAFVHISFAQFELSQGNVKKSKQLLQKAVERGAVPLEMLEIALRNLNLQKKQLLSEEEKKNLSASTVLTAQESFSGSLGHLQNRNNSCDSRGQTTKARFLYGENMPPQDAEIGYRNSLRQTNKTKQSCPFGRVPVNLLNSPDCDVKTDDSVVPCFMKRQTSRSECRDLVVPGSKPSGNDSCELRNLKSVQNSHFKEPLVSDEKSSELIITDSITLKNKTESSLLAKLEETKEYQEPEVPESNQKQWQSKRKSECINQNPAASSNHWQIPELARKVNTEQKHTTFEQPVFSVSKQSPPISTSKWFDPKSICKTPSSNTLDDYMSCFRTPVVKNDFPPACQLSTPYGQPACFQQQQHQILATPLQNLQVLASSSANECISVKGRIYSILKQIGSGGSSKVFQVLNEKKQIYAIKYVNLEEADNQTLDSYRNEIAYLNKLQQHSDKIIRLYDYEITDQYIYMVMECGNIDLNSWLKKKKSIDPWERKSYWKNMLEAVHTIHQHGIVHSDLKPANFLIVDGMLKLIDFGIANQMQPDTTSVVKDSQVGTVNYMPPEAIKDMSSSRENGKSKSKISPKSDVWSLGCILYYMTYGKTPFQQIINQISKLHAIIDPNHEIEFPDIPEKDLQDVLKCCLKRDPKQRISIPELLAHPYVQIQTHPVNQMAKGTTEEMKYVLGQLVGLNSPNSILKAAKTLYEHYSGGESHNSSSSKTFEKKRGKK
assay summary: Mps-1 kinase assay (TR-FRET)
Format: biochemical
condition notes: Mps1 IC50 [nM], 10 μM ATP, 1 μM peptide substrate, 60 min at 22° C.
Catalogue of IC50 values
Dear colleague, please return just the value in nM, with no unit written.

Task: Using the record for Cc1cc(-c2cnc3c(NCC4CCOCC4)cc(Oc4cccc(F)c4)nn23)ccc1C(=O)NC1CC1 , report its IC50.
Result: 0.2

Task: Using the record for Cc1cc(-c2cnc3c(NCc4nnn[nH]4)cc(Oc4cccc(F)c4)nn23)ccc1C(=O)NC1CC1 , report its IC50.
Result: 8.9

Task: Using the record for CC(C)(O)CNc1cc(Oc2cccc(F)c2)nn2c(-c3ccc(C(=S)NC4CC4)cc3)cnc12 , report its IC50.
Result: 0.3

Task: Using the record for Cc1cc(-c2cnc3c(NCC(C)(C)O)cc(N4CCCCC4)nn23)ccc1C(=O)NC1CC1 , report its IC50.
Result: 3.9

Task: Using the record for Cc1cc(-c2cnc3c(NCCC(F)(F)F)cc(Cc4cccc(Br)c4)nn23)ccc1C(=O)NC1CC1 , report its IC50.
Result: 0.4

Task: Using the record for Cc1cc(-c2cnc3c(NCC(C)(C)O)cc(C4=CCNCC4)nn23)ccc1C(=O)NC1CC1 , report its IC50.
Result: 7.8

Task: Using the record for CC(C)CNc1cc(-c2ccc3[nH]c(=O)[nH]c3c2)nn2c(-c3ccc(C(=O)NC4CC4)cc3)cnc12 , report its IC50.
Result: 3.1
